MEASUREMENT_PROTOCOL: Cmax in Wistar rat at 10 mg/kg administered via oral gavage by LC/MS/MS analysis
Type: ADME, organism-based
Set-up: dose 10 mg/kg, route oral
APPLIED_CONDITIONS: in vivo
Short version: Cmax at least 2000 nM is rule met, less is rule not met.

1. COc1ccc(N2CCOCC2)c2sc(NC(=O)C3(C)CCC(C)(O)CC3)nc12 (stereo not given) = rule met
2. COc1cnc(N2CCOCC2)c2sc(NC(=O)C(C)(C)Oc3ccc(F)cc3)nc12 = rule not met
3. COc1ccc(N2CCOCC2)c2sc(NC(=O)C(C)(C)Oc3ccc(F)cc3)nc12 = rule not met
4. COc1ccc(N2CCOCC2)c2sc(NC(=O)C(C)(C)Oc3ccc(F)c(F)c3)nc12 = rule not met

----------
MEASUREMENT_PROTOCOL: Equilibrium aqueous solubility of the compound at pH 4 after 4 hrs
Format: physicochemical
APPLIED_CONDITIONS: aqueous medium
PROPERTY_NAME: solubility thermodynamic at 4 h (µM)

1) CCN(CC)C1CCC(C)(C(=O)Nc2nc3c(OC)ccc(N4CCOCC4)c3s2)CC1 (stereo not given) = 1810
2) COc1ccc(N2CCOCC2)c2sc(NC(=O)C3(C)CCC(C)(O)CC3)nc12 (stereo not given) = 111

----------
MEASUREMENT_PROTOCOL: AUC (0 to t) in Wistar rat plasma at 10 mg/kg administered through oral gavage by LC/MS/MS analysis
Assay type: ADME, organism-based
PROPERTY_NAME: AUC(0-t) (µM·h)

1) CCN(CC)C1CCC(C)(C(=O)Nc2nc3c(OC)ccc(N4CCOCC4)c3s2)CC1 (stereo unspecified) = 4.7

----------
MEASUREMENT_PROTOCOL: Equilibrium aqueous solubility of the compound at pH 7.4 after 4 hrs
Format: physicochemical
APPLIED_CONDITIONS: aqueous medium
Property: solubility thermodynamic at 4 h; scope: individual compounds
PROPERTY_NAME: solubility thermodynamic at 4 h (µM)

1. COc1ccc(N2CCOCC2)c2sc(NC(=O)C3(C)CCC(C)(O)CC3)nc12 (stereo not given) = 114
2. CCN(CC)C1CCC(C)(C(=O)Nc2nc3c(OC)ccc(N4CCOCC4)c3s2)CC1 (stereo not given) = 1590

----------
MEASURED_ON: Adenosine receptor A3 (Homo sapiens)
MEASUREMENT_PROTOCOL: Displacement of [3H]-HEMADO from human adenosine A3 receptor expressed in HEK293 cell membranes at 1 uM measured after 90 mins relative to control
PROPERTY_NAME: inhibition (%)

1. COc1ccc(N2CCOCC2)c2sc(NC(=O)C(C)(C)Oc3ccc(F)cc3F)nc12 = 21
2. COc1cnc(N2CCOCC2)c2sc(NC(=O)C(C)(C)Oc3cccc(F)c3)nc12 = 94
3. COc1ccc(N2CCOCC2)c2sc(NC(=O)C(C)(C)Oc3ccc(F)c(F)c3)nc12 = 28
4. COc1cnc(N2CCOCC2)c2sc(NC(=O)C(C)(C)Oc3ccc(F)c(F)c3)nc12 = 47
5. COc1ccc(OC(C)(C)C(=O)Nc2nc3c(OC)ccc(N4CCOCC4)c3s2)cc1OC = 0
6. COc1ccc(N2CCOCC2)c2sc(NC(=O)C(C)(C)Oc3cccc(F)c3)nc12 = 20
7. COc1cnc(N2CCOCC2)c2sc(NC(=O)C(C)(C)Oc3ccc(F)cc3)nc12 = 46
8. COc1cnc(N2CCOCC2)c2sc(NC(=O)C(C)(C)Oc3c(F)cccc3F)nc12 = 48
9. COCCOc1cccc(OC(C)(C)C(=O)Nc2nc3c(OC)cnc(N4CCOCC4)c3s2)c1 = 41
10. COc1ccc(N2CCOCC2)c2sc(NC(=O)C(C)(C)Oc3ccc(F)cc3)nc12 = 11
11. COc1cnc(N2CCOCC2)c2sc(NC(=O)C(C)(C)Oc3ccc(F)cc3F)nc12 = 47
12. COc1ccc(N2CCOCC2)c2sc(NC(=O)C(C)(C)Oc3c(F)cccc3F)nc12 = 10
13. COc1ccc(N2CCOCC2)c2sc(NC(=O)C(C)(C)Oc3ccc4c(c3)OCO4)nc12 = 29
14. COCCOc1cccc(OC(C)(C)C(=O)Nc2nc3c(OC)ccc(N4CCOCC4)c3s2)c1 = 20
15. COc1ccc(N2CCOCC2)c2sc(NC(=O)C(C)(C)Oc3ccc(C)cc3)nc12 = 5
